src = ChEMBL document CHEMBL5726651

Target: Complement factor D (Homo sapiens)
Sequence (P00746 whole entry): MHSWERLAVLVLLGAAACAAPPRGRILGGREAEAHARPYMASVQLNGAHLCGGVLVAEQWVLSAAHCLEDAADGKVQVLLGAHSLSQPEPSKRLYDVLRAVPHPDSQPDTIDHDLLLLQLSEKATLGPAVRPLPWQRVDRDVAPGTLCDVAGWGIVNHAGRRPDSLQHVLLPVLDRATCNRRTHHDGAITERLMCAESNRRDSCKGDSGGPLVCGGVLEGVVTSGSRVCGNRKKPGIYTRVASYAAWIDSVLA
Experiment: Inhibition Assay: Human factor D (purified from human serum, Complement Technology, Inc.) at 80 nM final concentration is incubated with test compound at various concentrations for 5 minutes at room temperature in 50 mM Tris, 1M NaCl, pH 7.5. A synthetic substrate Z-L-Lys-SBzl and DTNB (Ellman's reagent) are added to final concentrations of 100 μM each. The increase in color is recorded at OD405 nm in a microplate in kinetic mode over 30 minutes with 30 second time points in a […]. IC50 values are calculated by non-linear regression from the percentage of inhibition of complement factor D activity as a function of test compound concentration.
pIC50: −log10 of the molar value.
measure name: pIC50

{"compound string": "NC(=O)c1nn(CC(=O)N2C[C@H](F)C[C@H]2C(=O)Nc2cncc(Br)n2)c2ccc(C#Cc3ncc(F)cn3)cc12", "measurement": "> 6.00"}
